# key: entry, value: normalized growth
- ASSAY_PROTOCOL: chemical genetic growth profiling, strain panel (AID 1159580);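 note: tested at 20 µM; growth read once vehicle control cultures reached saturation at 30 °C; 1 = growth at the plate median or of vehicle wells; lower values mean less growth of the strain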
- APPLIED_CONDITIONS: S. cerevisiae deletion strains, growth OD, locus YJR016C, strain ILV3, active compounds read low
Among all 5,500 compounds or so, about 2,000 (36%) were called active. Not shown: some 18% with an inconclusive outcome. The list shows a part of the results.
Reply briefly: the number, and no unit.

A selection of reference data follows.
Clc1ccc(CSc2nccn2-c2cc(Cl)ccc2Cl)cc1 | 0.963
N/C(=N/O)c1ccc(Oc2ccc(C3SCCS3)cc2)c([N+](=O)[O-])c1 | 0.993
CC1CCC(C(C)C)C(N(Cc2ccccc2)C(=O)c2ccccc2)C1 (stereo unspecified) | 0.992

Asked: Report normalized growth for `N#CC(C#N)=Cc1c(-c2ccccc2Cl)[nH]c2ccccc12` please.
Given back: 0.956

Asked: Check `Clc1cc(Cl)cc(C=NCc2ccccc2)c1` too.
Given back: 0.961

Asked: Then this compound: `Clc1ccc(Oc2ccnc3cc(Cl)ccc23)cc1`
Given back: 0.914
